- System: mitochondria obtained from hepatocytes
- Test name: Inhibitory activity on calcium-induced mitochondrial swelling (absorbance 520 nm)
- Details: calcium-induced swelling of extracted mitochondria; read-out: Test Example 4: inhibiting mitochondrial swelling (IC50)
pIC50: −log10 of the molar value.
Parameter: pIC50

# per-item lookup of pIC50; items listed below
1. Cc1ccc(C(C#N)=Cc2ccccc2C(=O)O)cc1C [Compound 13]
2. CCOc1ccc(C(C#N)=Cc2ccccc2C(=O)O)cc1 [Compound 17]
3. CCCCCOC(=O)c1ccccc1C=Cc1ccc(CC(C)(C)C)cc1 [Compound 72]
4. CCc1ccc(C(C#N)=Cc2ccccc2N(C)C)cc1 [Compound 3]

1: 3.30 to 4.30; 2: 3.30 to 4.30; 3: > 5.30; 4: 3.30 to 4.30

# per-item lookup of pIC50; items listed below
1. CC(C)(C)C(=O)c1ccc(C(C#N)=Cc2ccccc2C(=O)O)cc1 [Compound 15]
2. CCCCOc1ccc(C(C#N)=Cc2ccccc2C(=O)O)cc1 [Compound 19]

3.30 to 4.30
4.30 to 5.30
